Test: Stability of cannabinoid and Vitamin E components of Beverage 1 (AB White) stored at 8° C. and 21-25° C., LCMSMS over 570 days
Type: physicochemical
Settings: beverage stored at 21-25° C., day 19
outcome measure: Stability in AB White, 21-25° C. (content by LCMSMS) (µg/mL)
Give bare numbers, in µg/mL.

I have 3 molecules here; please give me Stability in AB White, 21-25° C. (content by LCMSMS) for each one.
1. CCCCCc1cc(O)c(C/C=C(\C)CCC=C(C)C)c(O)c1
2. CCCCCc1cc2c(c(O)c1C(=O)O)[C@@H]1C=C(C)CC[C@H]1C(C)(C)O2 [D9 THCA, delta-9-tetrahydrocannabinolic acid]
3. CCCCCc1cc(O)c2c(c1)OC(C)(C)c1ccc(C)cc1-2

Response:
[4.68, 0.917, 2.73]

Record Stability in AB White, 21-25° C. (content by LCMSMS) for all entries; do not skip any.
1. CCCc1cc(O)c2c(c1)OC(C)(C)[C@@H]1CCC(C)=C[C@@H]21 [THCV, delta-9-tetrahydrocannabivarin]
2. C=C(C)[C@@H]1CCC(C)=C[C@H]1c1c(O)cc(CCCCC)c(C(=O)O)c1O
3. CCCCCc1cc(O)c2c(c1)OC(C)(CCC=C(C)C)C=C2 (stereo not drawn)
4. C=C(C)[C@@H]1CCC(C)=C[C@H]1c1c(O)cc(CCC)cc1O
5. CCCCCc1cc(O)c2c(c1)OC(C)(C)[C@@H]1CCC(C)=C[C@@H]21 [D9 THC, delta-9-tetrahydrocannabinol, reference compound]
6. CCCCCc1cc(O)c2c(c1)OC1(C)CCC3C1C2C3(C)C (stereo not drawn)

Response:
1. 3.59
2. 1.70
3. 0.316
4. 0.148
5. 12.3
6. 0.552

====

Type: physicochemical
Conditions: stored at room temperature (21-25° C.), day 26
outcome measure: Stability in Powder Concentrate (content by LCMSMS)
Give the figure together with its unit, number first.

Reference set, count: 4
INSERT INTO assay_data (compound, value_reported) VALUES
  ('CCCCCc1cc(O)c2c(c1)OC1(C)CCC3C1C2C3(C)C (stereo not shown)', '0.051 mg/g powder'),
  ('CCCCCc1cc(O)c(C/C=C(\C)CCC=C(C)C)c(O)c1', '1.14 mg/g powder'),
  ('C=C(C)[C@@H]1CCC(C)=C[C@H]1c1c(O)cc(CCCCC)cc1O [CBD, cannabidiol, reference compound]', '6.00 mg/g powder'),
  ('C=C(C)[C@@H]1CCC(C)=C[C@H]1c1c(O)cc(CCCCC)c(C(=O)O)c1O', '0.397 mg/g powder');

For each entry beneath this line, provide reported Stability in Powder Concentrate (content by LCMSMS).
1. Cc1c(C)c2c(c(C)c1O)CC[C@@](C)(CCC[C@H](C)CCC[C@H](C)CCCC(C)C)O2
2. CC(=O)Oc1c(C)c(C)c2c(c1C)CCC(C)(CCC[C@H](C)CCC[C@H](C)CCCC(C)C)O2 (stereo partly drawn) [α-Tocopheryl acetate]
3. CCCc1cc(O)c2c(c1)OC(C)(C)[C@@H]1CCC(C)=C[C@@H]21 [THCV, delta-9-tetrahydrocannabivarin]
4. CCCCCc1cc2c(c(O)c1C(=O)O)[C@@H]1C=C(C)CC[C@H]1C(C)(C)O2 [D9 THCA, delta-9-tetrahydrocannabinolic acid]
5. C=C(C)[C@@H]1CCC(C)=C[C@H]1c1c(O)cc(CCC)cc1O
6. CCCCCc1cc(O)c2c(c1)OC(C)(CCC=C(C)C)C=C2 (stereo not shown)
7. Cc1c(C)c2c(c(C)c1OC(=O)CCC(=O)O)CC[C@@](C)(CCC[C@H](C)CCC[C@H](C)CCCC(C)C)O2 [α-Tocopheryl succinate]
8. CCCCCc1cc(O)c2c(c1)OC(C)(C)c1ccc(C)cc1-2

Response:
["4.84 mg/g powder", "2.10 mg/g powder", "0.686 mg/g powder", "0.150 mg/g powder", "0.050 mg/g powder", "0.071 mg/g powder", "1.76 mg/g powder", "0.486 mg/g powder"]

Query: // Stability in Powder Concentrate (content by LCMSMS) lookup, key: CCCCCc1cc(O)c2c(c1)OC(C)(C)[C@@H]1CCC(C)=C[C@@H]21 [D9 THC, delta-9-tetrahydrocannabinol, reference compound]
Response: 2.52 mg/g powder
